- measurement.target: Cdh1 WD40 domain (yeast) (Saccharomyces cerevisiae)
- Construct: the WD40 domains of yeast Cdh1 (aa 241–550; pNH144); 2xStrep-Tag II (N); made in house; host or cells: Sf9 insect cells (baculovirus)
- Sequence (P53197 241-550): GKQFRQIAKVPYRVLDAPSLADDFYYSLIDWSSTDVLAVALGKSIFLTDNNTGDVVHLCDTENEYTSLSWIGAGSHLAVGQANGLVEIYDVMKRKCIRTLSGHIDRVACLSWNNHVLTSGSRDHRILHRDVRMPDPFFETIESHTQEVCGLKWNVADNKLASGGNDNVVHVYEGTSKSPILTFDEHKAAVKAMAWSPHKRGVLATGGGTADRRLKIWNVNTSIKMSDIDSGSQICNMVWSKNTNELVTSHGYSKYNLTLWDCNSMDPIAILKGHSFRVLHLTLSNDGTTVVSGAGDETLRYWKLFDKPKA
- measurement.notes: Fluorescence anisotropy, 10 nM Cy5-labeled degron peptide, yeast Cdh1 WD40
- Type: binding
- experimental.context: replicate 2021-11-10; source data of Fig. 1a (there μM); read-out: Kd
endpoint.name: Kd (µM)
Field format: number, assumed µM, no unit text.

# get_value(readout='Kd', item= GVSTNKENEGPEYPTKIE-K(Cy5) [Hsl1 KEN and dark D box mutant, Cy5 Hsl1 KEN peptide (10 nM) in presence of unlabeled mutated Hsl1 D box (100 µM)] )
15.5

# get_value(readout='Kd', item= GVSTNKENEGPEYPTKIE-K(Cy5) [Hsl1 KEN and dark D box, Cy5 Hsl1 KEN peptide (10 nM) in presence of unlabeled Hsl1 D box (100 µM)] )
3.34

# get_value(readout='Kd', item= EQKPKRAALSDITNSFNKMN-K(Cy5) [Hsl1 D box and dark KEN, Cy5 Hsl1 D box peptide (10 nM) in presence of unlabeled Hsl1 KEN (100 µM)] )
1.04

# get_value(readout='Kd', item= EQKPKRAALSDITNSFNKMN-K(Cy5) [Hsl1 D box and dark KEN mutant, Cy5 Hsl1 D box peptide (10 nM) in presence of unlabeled mutated Hsl1 KEN (100 µM)] )
2.16
